Tested on: MALME-3M melanoma
testName: NCI tumour cell line growth inhibition, 48 h; in the data active = GI50 below about 0.43 µM; inactive = the rest
Pick one: 1 for active, 0 for inactive

1) COc1cc2c(c(OC)c1OC)-c1c(c3ccc([N+](=O)[O-])cc3c(=O)n1CCCN=[N+]=[N-])C2=O | 0

Now for a further molecule.
// outcome(item) with item = Cn1cnc2nc(Cl)nc(Cl)c21 0

====

System: NCI/ADR-RES ovarian
testName: NCI tumour cell line growth inhibition, 48 h
observable: TGI

Past entries and their recorded results:
1) CN(C)CCCNc1ccc2nnn3c4ccc([N+](=O)[O-])cc4c(=O)c1c23 | 3.09 µM
2) O=C1c2c(ccc3c2CCCC3)CC12Cc1ccccc1C2 | > 100 µM
3) COc1ccc(N2CCN(CC(=O)N3CCN(c4nnc(-c5ccc(Cl)cc5)c(-c5ccc(Cl)cc5)n4)CC3)CC2)cc1 | > 100 µM
4) Cc1ccc(S(=O)(=O)NC(CCCCN)C(=O)CCl)cc1 (stereo unspecified) | > 100 µM
5) CC(C)(C)C(=O)C(C#N)C(=O)C(C)(C)C | > 100 µM

Item under review: OB1OCc2ccccc21 . Reported TGI? 57.9 µM
